Please respond with reported pKi for every item in the list.
Worth noting: pKi values are minus log10 of concentrations stated in mol/L.

Task: Enter reported pKi observed with Apoptosis regulator Bcl-2 (Homo sapiens, UniProt P10415) for `O=C(NS(=O)(=O)c1ccc([N+](=O)[O-])cc1)[C@H](Cc1ccccc1)N1C(=O)/C(=C/c2ccc(-c3ccc(Cl)cc3)cc2)SC1=S`
Sequence (P10415 whole entry): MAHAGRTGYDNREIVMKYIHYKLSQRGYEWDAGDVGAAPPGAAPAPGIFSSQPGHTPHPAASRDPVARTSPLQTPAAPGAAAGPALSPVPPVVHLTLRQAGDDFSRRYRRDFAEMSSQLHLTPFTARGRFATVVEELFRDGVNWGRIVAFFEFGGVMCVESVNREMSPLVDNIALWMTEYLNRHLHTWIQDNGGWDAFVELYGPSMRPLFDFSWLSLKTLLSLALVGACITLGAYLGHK
Output: 6.18

Task: Enter reported pKi observed with Apoptosis regulator Bcl-2 (Homo sapiens, UniProt P10415) for `O=C(NS(=O)(=O)c1ccccc1)[C@H](Cc1ccc(Br)cc1)N1C(=O)/C(=C/c2ccc(-c3ccc(Cl)cc3)cc2)SC1=S`
Output: 6.33

Task: Enter reported pKi observed with Apoptosis regulator Bcl-2 (Homo sapiens, UniProt P10415) for `O=C(NS(=O)(=O)c1ccccc1)[C@H](Cc1ccc(Br)cc1)N1C(=O)/C(=C/c2ccc(-c3ccccc3)cc2)SC1=S`
Output: 6.28

Task: Enter reported pKi observed with Apoptosis regulator Bcl-2 (Homo sapiens, UniProt P10415) for `O=C(NS(=O)(=O)c1ccc(Cl)c([N+](=O)[O-])c1)[C@H](Cc1ccccc1)N1C(=O)/C(=C/c2ccc(-c3ccccc3)cc2)SC1=S`
Output: 6.27

Task: Enter reported pKi observed with Apoptosis regulator Bcl-2 (Homo sapiens, UniProt P10415) for `O=C(NS(=O)(=O)c1ccc([N+](=O)[O-])cc1)[C@H](Cc1ccc(Br)cc1)N1C(=O)/C(=C/c2ccc(-c3ccc(Cl)cc3)cc2)SC1=S`
Output: 6.15

Task: Enter reported pKi observed with Apoptosis regulator Bcl-2 (Homo sapiens, UniProt P10415) for `CC[C@H](C)[C@@H](C(=O)NS(=O)(=O)c1ccccc1)N1C(=O)/C(=C/c2ccc(-c3ccccc3)cc2)SC1=S`
Output: 6.39

Task: Enter reported pKi observed with Apoptosis regulator Bcl-2 (Homo sapiens, UniProt P10415) for `O=C(NS(=O)(=O)c1ccccc1)[C@H](Cc1c[nH]c2ccccc12)N1C(=O)/C(=C/c2ccc(-c3ccc([N+](=O)[O-])cc3)cc2)SC1=S`
Output: 6.27

Task: Enter reported pKi observed with Apoptosis regulator Bcl-2 (Homo sapiens, UniProt P10415) for `O=C(NS(=O)(=O)c1ccc(Cl)c([N+](=O)[O-])c1)[C@H](Cc1ccccc1)N1C(=O)/C(=C/c2ccc(-c3ccc([N+](=O)[O-])cc3)cc2)SC1=S`
Output: 5.62

Task: Enter reported pKi observed with Apoptosis regulator Bcl-2 (Homo sapiens, UniProt P10415) for `O=C(NS(=O)(=O)c1ccc(Cl)cc1)[C@H](Cc1ccccc1)N1C(=O)/C(=C/c2ccc(-c3ccccc3)cc2)SC1=S`
Output: 6.29

Task: Enter reported pKi observed with Apoptosis regulator Bcl-2 (Homo sapiens, UniProt P10415) for `O=C(NS(=O)(=O)c1ccc(Cl)c([N+](=O)[O-])c1)[C@H](Cc1ccc(Br)cc1)N1C(=O)/C(=C/c2ccc(-c3ccc(Cl)cc3)cc2)SC1=S`
Output: 6.15

Task: Enter reported pKi observed with Apoptosis regulator Bcl-2 (Homo sapiens, UniProt P10415) for `Cc1ccc(-c2ccc(/C=C3\SC(=S)N([C@@H](Cc4c[nH]c5ccccc45)C(=O)NS(=O)(=O)c4ccc([N+](=O)[O-])cc4)C3=O)cc2)cc1`
Output: 6.14

----------
molecular target: Induced myeloid leukemia cell differentiation protein Mcl-1 (Homo sapiens); experiment: Inhibition of Mcl-1 (unknown origin) using 5-FAM-Bid-BH3 as substrate preincubated for 30 mins before substrate addition measured after 20 mins by fluorescence polarization technique
Sequence (Q07820 whole entry): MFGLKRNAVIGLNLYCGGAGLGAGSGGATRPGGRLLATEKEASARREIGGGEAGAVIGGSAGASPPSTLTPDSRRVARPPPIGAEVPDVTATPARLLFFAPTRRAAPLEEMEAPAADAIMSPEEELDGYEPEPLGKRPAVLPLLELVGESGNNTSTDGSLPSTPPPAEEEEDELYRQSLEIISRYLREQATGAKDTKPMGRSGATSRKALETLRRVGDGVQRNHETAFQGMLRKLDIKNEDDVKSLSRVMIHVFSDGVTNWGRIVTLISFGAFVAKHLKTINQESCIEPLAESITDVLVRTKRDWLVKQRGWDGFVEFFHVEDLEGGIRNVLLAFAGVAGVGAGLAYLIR
Mark TRUE only for Ki values smaller than 70 nM; exact matches and larger values are FALSE.

Task: Would you kindly verify if Ki of `O=C(NS(=O)(=O)c1ccccc1)[C@H](Cc1ccc(Br)cc1)N1C(=O)/C(=C/c2ccc(-c3ccc(Cl)cc3)cc2)SC1=S` is strictly less than 70 nM?
Output: TRUE

Task: Would you kindly verify if Ki of `O=C(NS(=O)(=O)c1ccc([N+](=O)[O-])cc1)[C@H](Cc1ccc(Br)cc1)N1C(=O)/C(=C/c2ccc(-c3ccc([N+](=O)[O-])cc3)cc2)SC1=S` is strictly less than 70 nM?
Output: FALSE

Task: Would you kindly verify if Ki of `O=C(NS(=O)(=O)c1ccccc1)[C@H](Cc1ccc(Br)cc1)N1C(=O)/C(=C/c2ccc(-c3ccc([N+](=O)[O-])cc3)cc2)SC1=S` is strictly less than 70 nM?
Output: FALSE

Task: Would you kindly verify if Ki of `Cc1ccc(S(=O)(=O)NC(=O)[C@H](Cc2ccccc2)N2C(=O)/C(=C/c3ccc(-c4ccccc4)cc3)SC2=S)cc1` is strictly less than 70 nM?
Output: FALSE

Task: Would you kindly verify if Ki of `O=C(NS(=O)(=O)c1ccc([N+](=O)[O-])cc1)[C@H](Cc1ccc(Br)cc1)N1C(=O)/C(=C/c2ccc(-c3ccc(Cl)cc3)cc2)SC1=S` is strictly less than 70 nM?
Output: TRUE

----------
Please respond with reported pIC50 for every item in the list.
tested on: K562; assay: cells; conditions: Homo sapiens, K562, 48 h
Worth noting: pIC50 values are minus log10 of concentrations stated in mol/L.

Task: Enter reported pIC50 observed with K562 for Cc1cc2c(C(C)C)c(O)c(O)c(C=O)c2c(O)c1-c1c(C)cc2c(C(C)C)c(O)c(O)c(C=O)c2c1O [GOSSYPOL]
Output: 5.34

Task: Enter reported pIC50 observed with K562 for `O=C(NS(=O)(=O)c1ccc([N+](=O)[O-])cc1)[C@H](Cc1ccc(Br)cc1)N1C(=O)/C(=C/c2ccc(-c3ccc([N+](=O)[O-])cc3)cc2)SC1=S`
Output: 5.10

Task: Enter reported pIC50 observed with K562 for `O=C(NS(=O)(=O)c1ccc([N+](=O)[O-])cc1)[C@H](Cc1ccc(Br)cc1)N1C(=O)/C(=C/c2ccc(-c3ccc(Cl)cc3)cc2)SC1=S`
Output: 5.03

Task: Enter reported pIC50 observed with K562 for `O=C(NS(=O)(=O)c1ccccc1)[C@H](Cc1ccc(Br)cc1)N1C(=O)/C(=C/c2ccc(-c3ccc(Cl)cc3)cc2)SC1=S`
Output: 4.68

----------
target: Bcl-2-like protein 1 (Homo sapiens); test: Inhibition of Bcl-XL (unknown origin) using 5-FAM-Bid-BH3 as substrate preincubated for 30 mins before substrate addition measured after 20 mins by fluorescence polarization technique; settings: read-out: Ki
Sequence (Q07817 whole entry): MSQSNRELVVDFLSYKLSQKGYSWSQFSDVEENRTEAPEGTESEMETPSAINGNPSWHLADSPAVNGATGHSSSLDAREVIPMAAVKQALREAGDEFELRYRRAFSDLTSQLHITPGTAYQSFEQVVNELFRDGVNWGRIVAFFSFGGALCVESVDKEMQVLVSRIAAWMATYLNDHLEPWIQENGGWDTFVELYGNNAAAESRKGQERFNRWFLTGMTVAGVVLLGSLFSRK
Please respond with reported Ki for every item in the list.
Provide the reading as a plain figure in nM.

Task: Fill in: Ki of `O=C(NS(=O)(=O)c1ccccc1)[C@H](Cc1ccc(Br)cc1)N1C(=O)/C(=C/c2ccc(-c3ccc(Cl)cc3)cc2)SC1=S` is ___
Output: 390

Task: Fill in: Ki of `O=C(NS(=O)(=O)c1ccc([N+](=O)[O-])cc1)[C@H](Cc1ccc(Br)cc1)N1C(=O)/C(=C/c2ccc(-c3ccc(Cl)cc3)cc2)SC1=S` is ___
Output: 490

Task: Fill in: Ki of `O=C(NS(=O)(=O)c1ccccc1)[C@H](Cc1ccc(Br)cc1)N1C(=O)/C(=C/c2ccc(-c3ccc([N+](=O)[O-])cc3)cc2)SC1=S` is ___
Output: 540

Task: Fill in: Ki of `Cc1ccc(S(=O)(=O)NC(=O)[C@H](Cc2ccccc2)N2C(=O)/C(=C/c3ccc(-c4ccccc4)cc3)SC2=S)cc1` is ___
Output: 660

----------
target: Apoptosis regulator Bcl-2 (Homo sapiens)
measuredEndpoint: pKi
Worth noting: pKi values are minus log10 of concentrations stated in mol/L.

Task: Enter reported pKi observed with Apoptosis regulator Bcl-2 (Homo sapiens) for `O=C(NS(=O)(=O)c1ccc([N+](=O)[O-])cc1)[C@H](Cc1ccccc1)N1C(=O)/C(=C/c2ccc(-c3ccccc3)cc2)SC1=S`
Output: 6.35

Task: Enter reported pKi observed with Apoptosis regulator Bcl-2 (Homo sapiens) for `O=C(NS(=O)(=O)c1ccc([N+](=O)[O-])cc1)[C@H](Cc1c[nH]c2ccccc12)N1C(=O)/C(=C/c2ccc(-c3ccc([N+](=O)[O-])cc3)cc2)SC1=S`
Output: 7.10

Task: Enter reported pKi observed with Apoptosis regulator Bcl-2 (Homo sapiens) for `O=C(NS(=O)(=O)c1ccccc1)[C@H](Cc1ccc(Br)cc1)N1C(=O)/C(=C/c2ccc(-c3ccc([N+](=O)[O-])cc3)cc2)SC1=S`
Output: 6.38

Task: Enter reported pKi observed with Apoptosis regulator Bcl-2 (Homo sapiens) for `O=C(NS(=O)(=O)c1ccc(Cl)c([N+](=O)[O-])c1)[C@H](Cc1ccc(Br)cc1)N1C(=O)/C(=C/c2ccc(-c3ccc(C(F)(F)F)cc3)cc2)SC1=S`
Output: 5.92

Task: Enter reported pKi observed with Apoptosis regulator Bcl-2 (Homo sapiens) for `Cc1ccc(S(=O)(=O)NC(=O)[C@H](Cc2ccccc2)N2C(=O)/C(=C/c3ccc(-c4ccccc4)cc3)SC2=S)cc1`
Output: 6.14

Task: Enter reported pKi observed with Apoptosis regulator Bcl-2 (Homo sapiens) for `CC(C)[C@@H](C(=O)NS(=O)(=O)c1ccccc1)N1C(=O)/C(=C/c2ccc(-c3ccccc3)cc2)SC1=S`
Output: 6.20
